- method: Phase solubility of latanoprost in the presence of SBE-β-CD (CAPTISOL)
- Assay type: physicochemical
- testConditions: water, thermodynamic from solid; in the absence of any solubilizing agent; read-out: intrinsic solubility of latanoprost in water
- Experimental: SAE-CD increases the aqueous solubility of latanoprost. The phase solubility curve (FIG. 1) for latanoprost in the presence of SBE-β-CD (CAPTISOL®) was obtained according to Example 5. The intrinsic solubility of latanoprost in water, and in the absence of any solubilizing agent, is about 40 μg/mL. […]
experimentalEndpoint: solubility

chemicalString	experimentalValue
CC(C)OC(=O)CCC/C=C\C[C@@H]1[C@@H](CC[C@@H](O)CCc2ccccc2)[C@H](O)C[C@@H]1O	~40 µg/mL
